Hello, the source for this data is patent US7524964B2, in case you need it.

tgt: human CB1 receptor (Homo sapiens)
Sequence (P21554 whole entry): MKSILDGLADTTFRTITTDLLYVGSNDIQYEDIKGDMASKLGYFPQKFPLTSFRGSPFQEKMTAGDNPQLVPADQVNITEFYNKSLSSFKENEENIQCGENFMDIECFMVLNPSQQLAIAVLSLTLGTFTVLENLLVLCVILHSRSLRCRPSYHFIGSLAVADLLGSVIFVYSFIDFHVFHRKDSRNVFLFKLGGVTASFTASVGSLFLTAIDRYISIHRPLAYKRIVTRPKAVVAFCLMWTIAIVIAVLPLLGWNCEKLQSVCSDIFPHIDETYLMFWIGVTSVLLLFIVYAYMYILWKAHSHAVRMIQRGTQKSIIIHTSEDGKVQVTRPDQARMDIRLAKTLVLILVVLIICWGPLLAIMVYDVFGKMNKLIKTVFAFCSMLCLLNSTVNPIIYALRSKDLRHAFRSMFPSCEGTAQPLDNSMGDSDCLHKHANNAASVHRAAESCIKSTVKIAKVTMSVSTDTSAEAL
measurement_description: Binding assay, cannabinoid CB1 receptor ([3H]-CP-55,940 displacement)
Parameters: expressed in transfected cells; host or cells: SK-N-MC cells, pcDNA3 CB-1 (human), semi-purified membranes
assay_context: test concentration 10 μM (superscript c); read-out: CB1 binding percent inhibition
Kind request: treat 9% as inclusive, so inhibition at 10 µM at 9% or higher is 1 (yes), anything lower is 0 (no).

Observe how each entry below is paired with its result.
{"compound": "CC(NS(=O)(=O)/C=C/c1c2c(nn1Cc1ccccc1)CC[S+]([O-])C2)c1ccccc1 (centres unmarked)", "cat": "0 (no)"}
{"compound": "C[C@@H](NC(=O)/C=C/c1nn(Cc2ccccc2)c2c1C[S+]([O-])CC2)c1ccccc1 (some centres unmarked)", "cat": "0 (no)"}
{"compound": "C[C@H](NC(=O)/C=C/c1nn(Cc2ccccc2)c2c1CS(=O)(=O)CC2)c1ccccc1", "cat": "0 (no)"}
{"compound": "C[C@@H](NC(=O)/C=C/c1nn(Cc2ccccc2)c2c1CS(=O)(=O)CC2)c1ccccc1", "cat": "1 (yes)"}
{"compound": "C[C@H](NC(=O)/C=C/c1nn(Cc2ccccc2)c2c1CSCC2)c1ccccc1", "cat": "1 (yes)"}
{"compound": "C[C@H](NC(=O)/C=C/c1nn(Cc2ccccc2)c2c1C[S+]([O-])CC2)c1ccccc1 (some centres unmarked)", "cat": "1 (yes)"}

[ask] Reported inhibition at 10 µM reaches at least 9% for CC(NS(=O)(=O)/C=C/c1nn(Cc2ccccc2)c2c1C[S+]([O-])CC2)c1ccccc1 (centres unmarked) ?
[reply] 0 (no)

---

pIC50 by entry:
tgt: human CB1 receptor (Homo sapiens)
measurement_description: Binding assay, cannabinoid CB1 receptor ([3H]-CP-55,940 displacement)
Parameters: expressed in transfected cells; host or cells: SK-N-MC cells, pcDNA3 CB-1 (human), semi-purified membranes
Protocol: Binding Assay for CB1 or CB2 Agonists or Inverse Agonists The human CB-1 and CB-2 receptors were stably expressed in SK-N-MC cells transfected with pcDNA3 CB-1 (human) or pcDNA3 CB-2 (human). […] On the day of the assay, the pellet was thawed on ice and diluted in assay buffer (50 mM Tris-HCl, 5 mM MgCl2, 2.5 mM EDTA, 0.5 mg/mL fatty acid free bovine serum albumin, pH 7.5). […] Non-specific binding was measured in wells containing 10 uM WIN 55,212. […]
Please report pIC50 as the negative decimal logarithm of the molar concentration, giving only the number.

{"molecule": "C[C@@H](NC(=O)c1nn(-c2ccc(Cl)cc2Cl)c2c1CSC/C2=C\\c1ccc(F)cc1)c1ccccn1", "tgt": "human CB1 receptor (Homo sapiens)", "pIC50": 8.15}
{"molecule": "CC1CCCC(C)N1NC(=O)c1nn(-c2ccc(Cl)cc2Cl)c2c1CSC/C2=C\\c1ccc(F)cc1 (stereo not drawn)", "tgt": "human CB1 receptor (Homo sapiens)", "pIC50": 7.85}
{"molecule": "C[C@@H](NC(=O)c1nn(-c2ccc(Cl)cc2Cl)c2c1CS(=O)(=O)C/C2=C\\c1ccc(Cl)o1)c1ccccc1", "tgt": "human CB1 receptor (Homo sapiens)", "pIC50": 8.05}
{"molecule": "C[C@@H](NC(=O)c1nn(-c2ccc(Cl)cc2)c2c1CS(=O)(=O)C/C2=C\\c1ccc(F)cc1)c1ccccc1", "tgt": "human CB1 receptor (Homo sapiens)", "pIC50": 8.05}

[ask] GET /values?readout=pIC50&system=human CB1 receptor (Homo sapiens)&item= COC[C@H]1CCCN1NC(=O)c1nn(-c2ccc(Cl)cc2Cl)c2c1CSC/C2=C\c1ccc(F)cc1
[reply] 8.22

[ask] GET /values?readout=pIC50&system=human CB1 receptor (Homo sapiens)&item= C[C@@H](NC(=O)c1nn(-c2ccc(Cl)cc2Cl)c2c1CSC/C2=C\c1ccc(Br)cc1)c1ccccc1
[reply] 8.22

---

inhibition at 0.2 µM by entry:
tgt: human CB-2 receptor (Homo sapiens, UniProt P34972)
Construct: expressed in transfected cells; host or cells: SK-N-MC cells, pcDNA3 CB-2 (human), semi-purified membranes
Sequence (P34972 whole entry): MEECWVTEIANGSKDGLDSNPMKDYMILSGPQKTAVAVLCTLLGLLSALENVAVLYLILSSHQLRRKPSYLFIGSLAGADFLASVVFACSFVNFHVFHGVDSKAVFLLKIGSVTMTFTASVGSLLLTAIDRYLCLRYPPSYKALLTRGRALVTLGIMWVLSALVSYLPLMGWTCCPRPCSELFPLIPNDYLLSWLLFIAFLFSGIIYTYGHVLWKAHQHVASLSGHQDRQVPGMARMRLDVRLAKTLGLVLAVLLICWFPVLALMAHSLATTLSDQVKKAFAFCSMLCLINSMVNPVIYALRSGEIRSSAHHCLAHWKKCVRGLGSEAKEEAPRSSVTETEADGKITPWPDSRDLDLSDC
measurement_description: Binding assay, cannabinoid CB2 receptor ([3H]-CP-55,940 displacement)
assay_context: test concentration 0.2 μM (superscript a); read-out: CB2 binding percent inhibition
Experimental: Binding Assay for CB1 or CB2 Agonists or Inverse Agonists The human CB-1 and CB-2 receptors were stably expressed in SK-N-MC cells transfected with pcDNA3 CB-1 (human) or pcDNA3 CB-2 (human). […] On the day of the assay, the pellet was thawed on ice and diluted in assay buffer (50 mM Tris-HCl, 5 mM MgCl2, 2.5 mM EDTA, 0.5 mg/mL fatty acid free bovine serum albumin, pH 7.5). […] Non-specific binding was measured in wells containing 10 uM WIN 55,212. […]
Reply with the number and its unit after it.

These recorded examples may help you get a feel for the data.
{"compound": "O=C(NN1CCN(CCO)CC1)c1nn(-c2ccc(Cl)cc2Cl)c2c1CSC/C2=C\\c1ccc(F)cc1", "measure_name": "inhibition at 0.2 µM", "reported_result": "5%"}
{"compound": "O=C(N[C@@H]1c2ccccc2C[C@@H]1O)c1nn(-c2ccc(F)cc2F)c2c1CS(=O)(=O)CC2Cc1cccc(F)c1 (stereo partly shown)", "measure_name": "inhibition at 0.2 µM", "reported_result": "9%"}
{"compound": "C[C@H](NC(=O)c1c2c(nn1-c1ccc(Cl)cc1Cl)/C(=C/c1ccc(F)cc1)CS(=O)(=O)C2)c1ccccc1", "measure_name": "inhibition at 0.2 µM", "reported_result": "14%"}
{"compound": "O=C(N[C@H]1c2ccccc2C[C@H]1O)c1nn(-c2ccc(Cl)cc2Cl)c2c1CS(=O)(=O)C/C2=C\\c1ccc(F)cc1", "measure_name": "inhibition at 0.2 µM", "reported_result": "19%"}
{"compound": "C[C@H](NS(=O)(=O)/C=C/c1nn(-c2ccc(Cl)cc2Cl)c2c1CSCC2Cc1cccc(Cl)c1)c1ccccc1 (stereo partly shown)", "measure_name": "inhibition at 0.2 µM", "reported_result": "18%"}
{"compound": "CN1CCN(NC(=O)c2nn(-c3ccc(Cl)cc3Cl)c3c2CSC/C3=C\\c2ccc(F)cc2)CC1", "measure_name": "inhibition at 0.2 µM", "reported_result": "0%"}
{"compound": "O=C(c1nn(-c2ccc(Cl)cc2Cl)c2c1CS(=O)(=O)C/C2=C\\c1ccc(F)cc1)N1CCCCC1", "measure_name": "inhibition at 0.2 µM", "reported_result": "24%"}
{"compound": "O=C(NN1CC2CCCC2C1)c1nn(-c2ccc(Cl)cc2Cl)c2c1CS(=O)(=O)C/C2=C\\c1ccc(F)cc1 (stereo not shown)", "measure_name": "inhibition at 0.2 µM", "reported_result": "10%"}
{"compound": "O=C(NN1CC2CCCC2C1)c1nn(-c2ccc(Cl)cc2)c2c1CSC/C2=C\\c1ccc(F)cc1 (stereo not shown)", "measure_name": "inhibition at 0.2 µM", "reported_result": "5%"}

Now consider a different compound.
[ask] # input compound: O=C(NCc1ccccn1)c1nn(-c2ccc(Cl)cc2Cl)c2c1CS(=O)(=O)C/C2=C\c1ccc(F)cc1 ; wanted: its inhibition at 0.2 µM
[reply] 13%
